# Tested on: Sam68 (KHDRBS1)
# test.summary: compounds binding KHDRBS1 protein – biochemical, small-molecule microarray, 635 nm fluorescence, primary screen (AID 1125);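 further: score merges 667 nm channel intensity with signal to noise over triplicate slides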
# measurement.setup: higher = more signal
For each record, write down the corresponding composite z-score.
Response field accepts a number only; no unit should be typed.

### Prompt Field request: composite z-score | item: `Cc1ccc(/C=C/C=O)cc1`
### Response -0.912

### Prompt Quick one: CC1CC/C=C\[C@H]2OC34C=CCN(Cc5ccccc5)C(=O)[C@H]3N(C(C)CO)C(=O)[C@@H]4C2C(=O)O1 (some centres undefined)
### Response -0.99

### Prompt Quick one: C[C@H]1C2[C@H](Cc3ccccc3)NC(=O)[C@]23C(=O)NCC(=O)N2CCC[C@H]2C(=O)NC/C=C/CCC/C=C/C3[C@@H]2O[C@]12C (some centres undefined)
### Response -1.51

### Prompt Quick one: `CCCCCCc1nc(-c2ccc(-c3ccc(Cl)c(Cl)c3)o2)c(C)c2c1[Si](C(C)C)(C(C)C)OC2`
### Response 0.1
